The measured values listed here are drawn from the supplement of paper PMC10567573.

B1: POMT2 (parent)
chain: YHEAPMTRKHYQVTGYGINGTGDS

Variants of: B1
Assay: protein stability index of a GFP-peptide fusion (GPS, HEK-293T) (PSI 1-6); higher = more stable;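 also: lentivirally expressed fusions sorted by FACS into six bins by GFP to DsRed ratio, PSI derived from sequencing read proportions per bin multiplied by bin number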
Conditions: c terminus: a fixed tail appended
measurementType: protein stability index
In your answer, state the number alone without any accompanying words.

Give recorded protein stability index. T21R 2.6

Give recorded protein stability index. E3G 2.75

Give recorded protein stability index. Y16V 2.47

Give recorded protein stability index. I18Y 2.07

Give recorded protein stability index. N19W 2.24

Give recorded protein stability index. N19L 2.06

Give recorded protein stability index. H10Y 1.33

Give recorded protein stability index. T14N 2.39

Give recorded protein stability index. G20M 1.98

Give recorded protein stability index. D23C 2.22

Give recorded protein stability index. V13P 2.34

Give recorded protein stability index. T21S 2.19

Give recorded protein stability index. S24A 2.15

Give recorded protein stability index. Y1L 3.47

Give recorded protein stability index. D23H 2.03

Give recorded protein stability index. A4I 2.42
